recorded conditions: pH 2.7
Marks after values point to notes of the source that are not given here.
assay readout: Log P

Below: 3 compounds and their reported Log P.
>>> df
                                   compound  assay_readout  meas_value
0  CCOC(=O)C(C#N)=C(NC1(c2ccccc2)CCC1)c1cccnc1Cl [Compound 1550]          Log P    3.73^[a]
1  CCOC(=O)C(C#N)=C(NC1CCCCC1)c1cccnc1Cl [Compound 761]          Log P    3.55^[a]
2  CCOC(=O)C(C#N)=C(NC(c1cc2ccccc2s1)C(F)(F)F)c1c(C)nn(C)c1Cl (racemic) [Compound 137]          Log P    4.46^[a]

Next item in the queue.
*Q* What value of Log P has been reported for the following compound? CCOC(=O)C(C#N)=C(NC(C(=O)OC)C(C)C)c1sc(C)nc1C(F)(F)F (stereo not drawn) [Compound 682]
*A* 3.64^[a]

* * *

recorded conditions: pH 2.7
Marks after values point to notes of the source that are not given here.
# key: entry, value: Log P

The following molecules have reported results that may help.
In [3]: df
Out[3]:
                                   molecule  meas_value
0  CCOC(=O)C(C#N)=C(NCc1nc2ccccc2s1)c1cn(C)nc1C(F)F    2.82^[a]
1    CCOC(=O)C(C#N)=C(NC1(CC)CC1)c1cccnc1Cl    3.13^[a]
2  CCNC(=O)C(C#N)=C(NC(C)c1nccs1)c1ccnc(Br)c1Cl (stereo not drawn)    2.62^[a]
3  CCOC(=O)C(C#N)=C(NC(C)Cc1c[nH]c2ccccc12)c1sccc1Br (stereo not drawn)     3.8^[a]
4  CCOC(=O)C(C#N)=C(NC(C)c1cccs1)c1sc(C)nc1C(F)(F)F (stereo not drawn)     3.8^[a]

*Q* Which Log P value is on record for C=CCNC(=O)C(C#N)=C(NC(C)C(C)C)c1cn(C)nc1C(F)F (stereo not drawn) [Compound 1008] ?
*A* 2.68^[a]

*Q* Form field: reported Log P of C=Cc1nn(C)cc1C(NC(C)C(C)C)=C(C#N)C(=O)OCC (stereo not drawn)
*A* 3.06^[a]

*Q* What Log P value was documented for this molecule, CCOC(=O)C(C#N)=C(NC(C)C(=O)NC1CCCCC1)c1cc(Cl)sc1Cl (stereo not drawn) ?
*A* 3.83^[a]

*Q* Entry under review: CCOC(=O)C(C#N)=C(NC(CC)COC)c1cn(C)nc1C(F)F (stereo not drawn) . Reported Log P?
*A* 2.71^[a]

* * *

recorded conditions: pH 2.7
Marks after values point to notes of the source that are not given here.
assay readout: Log P

Observe how each entry below is paired with its result.
>>> df
                                   molecule  meas_value
0  CCOC(=O)C(C#N)=C(NC(C)C1CC1)c1ccnc(Cl)c1F (stereo not shown)     3.5^[a]
1  CCOC(=O)C(C#N)=C(NC(C)COC)c1ccnc(Cl)c1Cl (stereo not shown)    3.06^[a]

*Q* Log P for COCCNC(=O)C(C#N)=C(NC(C)c1ccccn1)c1cn(C)nc1C(F)F (racemic) ?
*A* 1.75^[a]

*Q* Reported Log P, molecule CCOC(=O)C(C#N)=C(NC(C(=O)OC)C(C)C)c1sccc1C(F)(F)F (stereo not shown) [Compound 659] : ____
*A* 3.62^[a]

* * *

recorded conditions: pH 7.5
assay readout: Log P

(I) CC(C)C(C)NC(=C(C#N)C(=O)NC1CS(=O)(=O)C1)c1cccnc1Cl (stereo not drawn)
(II) CCOC(=O)C(C#N)=C(NC(C)C(C)C)c1cccnc1-c1ccsc1 (stereo not drawn)
*Q* Between I and II , which one shows the larger Log P value? Refer to your chosen item by its label in the answer.
*A* II

* * *

recorded conditions: pH 7.5
assay readout: Log P

Some solved cases for reference:
>>> print(df.to_string())
                                   compound  meas_value
0        CCOC(=O)C(C#N)=C(NC1CC1)c1cccnc1Cl        2.36
1  CCOC(=O)C(C#N)=C(NC(C)c1nccs1)c1cccnc1F (stereo not drawn)        2.32
2  CCOC(=O)C(C#N)=C(NC(C)c1ncc(Br)s1)c1cccnc1Cl (racemic)        3.32
3  CCOC(=O)C(C#N)=C(Nc1cccc(F)c1C)c1cccnc1Cl        3.24
4  CCOC(=O)C(C#N)=C(NC(C)c1nccs1)c1cccnc1SC (racemic)        2.73

(I) CC(NC(=C(C#N)C(=O)OC1CCC1)c1cccnc1Cl)C1CC1 (mixture of isomers)
(II) CONC(=O)C(C#N)=C(NC(C)c1nccs1)c1ccc(Cl)nc1Cl (stereo not drawn)
*Q* Lower value for measured Log P? Options: I , II Answer with the label corresponding to your selection.
*A* II
(II: 1.94, I: 3.46)

* * *

recorded conditions: pH 2.3
assay readout: Log P

>>> print(df.to_string())
                                   compound  meas_value
0  CCOC(=O)C(C#N)=C(NC1CCCCC1C)c1cccnc1Cl (stereo not drawn)        3.84

(I) CCOC(=O)C(C#N)=C(NC(C)C(C)C)c1cccnc1-c1cccc(Cl)c1 (stereo not drawn)
(II) CC(C)C(C)NC(=C(C#N)C(=O)NC1COC1)c1cccnc1Cl (stereo not drawn)
*Q* // returns I or II , whichever has the lower Log P Could you answer with the label of the item you picked?
*A* II

* * *

Log P: recorded values
recorded conditions: pH 2.7
Marks after values point to notes of the source that are not given here.

In [3]: df
Out[3]:
                                   compound  meas_value
0  CCOC(=O)C(C#N)=C(NC(C)c1ccn[nH]1)c1cccnc1Cl (stereo not drawn)     2.1^[a]
1  CCOC(=O)C(C#N)=C(NC(C#N)Cc1ccccc1)c1cccnc1Cl (racemic)    3.02^[a]
2  CCOC(=O)C(C#N)=C(NCc1ccc(F)cn1)c1ccsc1Br    3.04^[a]
3  CCOC(=O)C(C#N)=C(NC(C)C1CCCC1)c1cccnc1Cl (stereo not drawn)     3.9^[a]
4  CCOC(=O)C(C#N)=C(Nc1ccccc1SC)c1cn(C)nc1C(C)F (racemic)    3.15^[a]

*Q* Can you share its Log P? I mean this compound: COC(=O)C(C#N)=C(NC(C)c1ccc2c(c1)OCO2)c1cccnc1Cl (stereo not drawn)
*A* 2.53^[a]

*Q* Which value of Log P has been reported for `COC(=O)C(C#N)=C(NC(C)(C)CSC)c1sc(C)nc1C(F)(F)F` in the records?
*A* 3.27^[a]

* * *

// values below are reported Log P
recorded conditions: pH 2.7
Marks after values point to notes of the source that are not given here.

Some compounds with recorded Log P:
                                   compound  meas_value
0  C#CC(C)(C)NC(=C(C#N)C(=O)OCC)c1cn(C)nc1C=C    2.54^[a]
1  CC#CC1(NC(=C(C#N)C(=O)OCC)c2cccnc2Cl)CCCCC1    4.06^[a]
2  COC(=O)C(C#N)=C(NC1CC(C(F)(F)F)CC(C(F)(F)F)C1)c1cccnc1Cl (stereo not drawn)    3.42^[a]
3  CCOC(=O)C(C#N)=C(NC(CC(F)(F)F)c1ccccc1)c1cn(C)nc1C(F)F (stereo not drawn)    3.37^[a]
4  CCOC(=O)C(C#N)=C(NC(C)CC)c1nc(SC)ncc1Br (racemic)    3.89^[a]

*Q* State the recorded Log P for this entry: COC(=O)C(C#N)=C(NC(CN1CCOCC1)C1CC1)c1cccnc1Cl (stereo not drawn)
*A* 1.38^[a]

*Q* Consider the compound `CCOC(=O)C(C#N)=C(NC1(COc2ccccc2)CC1)c1cn(C)nc1C(F)F` and give its measured Log P.
*A* 3.37^[a]

*Q* Quick one: Log P of `CCOC(=O)C(C#N)=C(Nc1ccc(C(C)C)cc1)c1sccc1Br` ?
*A* 4.73^[a]

*Q* Endpoint output: Log P of CCOC(=O)C(C#N)=C(NC(C)c1nccs1)c1cn(C)nc1C(C)(F)F (stereo not drawn) . Value?
*A* 2.62^[a]

* * *

Examples of compounds with documented Log P follow.
recorded conditions: pH 2.7
Marks after values point to notes of the source that are not given here.

                                   compound  meas_value
0  CCOC(=O)C(C#N)=C(NC(C)c1nccs1)c1cnccc1C(F)(F)F (racemic)     2.7^[a]
1  CCOC(=O)C(C#N)=C(NC(C)C(N)=O)c1sc(C)nc1C(F)(F)F (stereo not drawn)    1.96^[a]
2  CCOC(=O)C(C#N)=C(NCc1ccccc1SC)c1sccc1C(F)(F)F    4.09^[a]

*Q* What value of measured Log P is listed for `CCOC(=O)C(C#N)=C(Nc1ccc2ncsc2c1)c1ccsc1Br` ?
*A* 3.11^[a]

*Q* What does the data say about its Log P? Entry: CCNC(=O)C(C#N)=C(NC(C)c1ccccn1)c1ccnc(Cl)c1Br (racemic)
*A* 2.55^[a]

*Q* Need Log P of `COC(=O)C(C#N)=C(Nc1ccc(Cl)cc1)c1sc(C)nc1C(F)(F)F` , thanks.
*A* 3.55^[a]

*Q* If you can, please state the reported Log P value of CCOC(=O)C(C#N)=C(NC(C)COCC(C)(C)C)c1cn(C)nc1C(F)F (stereo not drawn) .
*A* 4.08^[a]

*Q* So what's the measured Log P for this one? CCNC(=O)C(C#N)=C(NC(C)c1nccs1)c1ccnc(Cl)c1Cl (stereo not drawn)
*A* 2.57^[a]

*Q* If you can, please state the reported Log P value of CCOC(=O)C(C#N)=C(NC(C)c1nccs1)c1ccsc1Br (stereo not drawn) .
*A* 3.1^[a]

*Q* Value lookup for Log P; key = CCN(OC)C(=O)C(C#N)=C(NC(C)C(C)C)c1cccnc1Cl (stereo not drawn)
*A* 3.15^[a]

*Q* Can you share its Log P? I mean this compound: CC(C)C(C)NC(=C(C#N)C(=O)N1CCSCC1)c1cccnc1Cl (stereo not drawn)
*A* 3.27^[a]

Just for reference, patent US8476197B2 is where these values come from.
